Assay: inhibitors of DENV2 cytopathic effect, primary screen, cell-based, plate reader, single concentration (AID 651640)
Settings: DENV2-infected cells, cytopathic effect rescue, at 9.99 µM
Out of some 350,000 compounds screened, about 6,000 (1.7%) were called active. Inconclusive results (about 5%) are left out. Cut-off read from the data, not from the text of the source: active = CPE inhibition above about 20% (passing the limit was not always enough); inconclusive = no clear call, values can overlap the other calls; tested in BHK-21 cells. Shown is part of a subset that was picked to be rich in actives.
Choose one outcome from this list and give only that: Y = active, N = inactive

[in] What outcome does the record of this test show for Cc1cc(C)n(CCNS(=O)(=O)c2ccc(Cl)cc2)n1 ?
[out] N

[in] Entry Cc1noc(C)c1NC(=O)N(C)C[C@@H]1Oc2c(NC(=O)C3CCCCC3)cccc2C(=O)N([C@H](C)CO)C[C@@H]1C : call = ?
[out] N

[in] Just curious, what result did O=C(Nc1ccc(-c2ccccc2)cc1)[C@@H]1[C@@H](CO)[C@@H]2Cn3c(cccc3=O)[C@H]1N2Cc1ccncc1 get here?
[out] N

[in] Check the results log: what was the call for Cc1c(CCC(=O)O)c(=O)oc2c(C)c(OCc3ccccc3Cl)ccc12 ?
[out] N

[in] Name the outcome recorded for O=S(=O)(c1ccccc1F)N1[C@@H]2CNC[C@H]1C2c1ccc(-c2cncnc2)cc1 (some centres not stated) in the assay.
[out] N

[in] Please indicate how the test categorized O=C(CC1CC1)N1[C@@H]2CN(S(=O)(=O)c3ccccc3F)c3ccccc3[C@@H]2[C@@H]1CO .
[out] N

[in] Just curious, what result did COc1ccc2c(C)c(CCC(=O)NC3CC3)c(=O)oc2c1C get here?
[out] Y

[in] For C[C@H]1CN([C@@H](C)CO)C(=O)c2cccc(NC(=O)Nc3ccccc3)c2O[C@H]1CN(C)C(=O)Nc1cccc2ccccc12 , what call appears in the results of this test?
[out] N

[in] Look up the recorded call for CN(C)C(=O)c1cccc(-c2ccc(C3[C@H]4CNC[C@@H]3N4C(=O)Nc3ccccc3F)cc2)c1 (some centres not stated) in this test.
[out] Y

[in] Could you please tell me the result logged for C[C@H]1CCCCO[C@H](CN(C)C(=O)CCC(F)(F)F)[C@@H](C)CN([C@@H](C)CO)C(=O)c2cc(NC(=O)Nc3ccc4c(c3)OCO4)ccc2O1 in this assay?
[out] N

[in] Field: outcome | Entry: CC1(C(=O)NCc2ccco2)Cc2c(-c3ccc4c(c3)OCO4)ccnc2O1 (configuration not stated)
[out] N

[in] Please state the recorded outcome for this molecule: C[C@H](CO)N1C[C@H](C)[C@H](CN(C)Cc2cccc(F)c2)Oc2ncc(C#CCN(C)C)cc2C1=O
[out] N

[in] Look up the recorded call for C[C@@H]1CN([C@@H](C)CO)C(=O)c2cccc(NC(=O)CCCCCC(=O)Nc3ccccc3N)c2O[C@H]1CN(C)C(=O)Nc1cccc2ccccc12 in this test.
[out] Y

[in] Give the logged outcome of this assay for the following molecule: Cc1noc(C)c1NC(=O)N(C)C[C@H]1OCCCC[C@@H](C)Oc2ccc(NC(=O)NC(C)C)cc2C(=O)N([C@@H](C)CO)C[C@H]1C
[out] N

[in] How was COc1ccc(OC)c(Cc2nnc(CCC(=O)NC3CCCC3)o2)c1 classified in this test?
[out] N

[in] Which result was noted for this molecule in the test: C[C@@H]1CN([C@@H](C)CO)C(=O)c2cccc(NC(=O)CCCCCC(=O)Nc3ccccc3N)c2O[C@H]1CN(C)C(=O)Nc1ccccc1
[out] N

[in] What outcome does the record of this test show for COc1ccc(-c2cn[nH]c2-c2ccc(OC)cc2)cc1 ?
[out] N
